FYI, the data here is from patent US8796280B2.

# Measurement Target: CRTH2 (Homo sapiens (Human))
# Sequence (Q9Y5Y4 whole entry): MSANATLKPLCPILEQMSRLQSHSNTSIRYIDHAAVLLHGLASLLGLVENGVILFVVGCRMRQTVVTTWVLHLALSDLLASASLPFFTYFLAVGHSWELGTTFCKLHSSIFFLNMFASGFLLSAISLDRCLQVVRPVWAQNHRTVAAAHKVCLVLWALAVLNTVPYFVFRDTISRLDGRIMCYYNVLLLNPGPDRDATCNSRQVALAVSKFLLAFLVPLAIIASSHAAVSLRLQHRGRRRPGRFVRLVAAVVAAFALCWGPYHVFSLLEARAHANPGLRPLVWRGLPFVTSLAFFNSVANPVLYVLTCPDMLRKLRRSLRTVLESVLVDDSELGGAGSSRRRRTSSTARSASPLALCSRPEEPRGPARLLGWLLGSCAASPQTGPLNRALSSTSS
# Test Method Notes: Radioligand binding assay ([3H]PGD2 displacement, hCRTH2 HEK293 (EBNA) cell membranes)
# Assay Context: 1.5 nM [3H]PGD2, 10 μg hCRTH2 HEK293 (EBNA) membrane protein, 60 min room temperature; test concentration not given
Parameter Measured: Inhibition hCRTH2 [%] (%)

* O=S(=O)(Nc1nccnc1-c1ccc(COc2ccc3c(c2)CCCC3)cc1)c1ccccc1Cl | 80.0
* CCc1nc2ccccc2n1Cc1ccc(-c2nccnc2NS(=O)(=O)c2ccccc2Cl)cc1 | 79.0
* O=S(=O)(Nc1nccnc1-c1ccc(COc2ccc3ccccc3c2)cc1)c1ccccc1Cl | 82.0
* O=S(=O)(Nc1nccnc1-c1ccc(Cn2ccc3ccccc32)cc1)c1ccccc1Cl | 81.5
